Read-out: Cytochrome P450 3A7 (Homo sapiens) (UniProt P24462)
Sequence (P24462 whole entry, looked up): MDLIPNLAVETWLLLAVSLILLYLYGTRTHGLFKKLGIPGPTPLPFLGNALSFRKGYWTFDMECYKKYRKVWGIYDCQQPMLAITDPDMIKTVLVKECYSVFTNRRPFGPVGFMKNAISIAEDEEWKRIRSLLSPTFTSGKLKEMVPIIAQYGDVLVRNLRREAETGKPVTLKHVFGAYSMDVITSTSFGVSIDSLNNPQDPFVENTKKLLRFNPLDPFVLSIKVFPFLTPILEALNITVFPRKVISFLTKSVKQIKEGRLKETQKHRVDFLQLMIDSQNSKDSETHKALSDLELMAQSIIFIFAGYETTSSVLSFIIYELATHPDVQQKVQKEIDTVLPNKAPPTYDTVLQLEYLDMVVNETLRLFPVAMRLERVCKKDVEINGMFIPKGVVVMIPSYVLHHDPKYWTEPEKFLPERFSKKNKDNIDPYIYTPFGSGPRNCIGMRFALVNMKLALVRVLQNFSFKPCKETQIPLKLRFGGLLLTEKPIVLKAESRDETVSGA
test description: LTEA_HepaRG_CYP3A7: Life Technologies and Expression Analysis (LTEA) Assay for CYP3A7 using HepaRG (AID 2283492)
experimental context: mRNA level, 48 h; actives raise or lower the signal
Calls of active or inactive are those of the source. How the source made its calls: active means hit-call score of the fitted dose curve at least 0.9, where 1 is the maximum; inactive means score below 0.9.
Your response should consist of one outcome taken from Yes (active), No (inactive)

Cc1nccn1-c1ccc(Sc2cccc(C3(C(N)=O)CCOCC3)c2)cc1; Yes
O=C(O)c1ccc2c(c1)nc(C(=O)NC1CCN(C3CC3)CC1)n2Cc1cc(-c2ccc(Cl)s2)on1; No
CCCCCCCCCCCCCCO; No
NC(N)=O; No
CCCCCOC(C)=O; No

Next up:
Problem: For O=C(NO)C1(NS(=O)(=O)c2ccc(Oc3ccc(F)cc3)cc2)CCOCC1 , which call appears in the assay record?
Result: No

---

Read-out: Interferon-gamma inducible Protein 10 (IP10), CXCL10 (gene 3627)
test description: BSK_BE3C_IP10: BioMAP Diversity Plus: BE3C Assay for Interferon-gamma inducible Protein 10 (IP10) Biomarker Activity (AID 2283034)
experimental context: primary human bronchial epithelial cells; actives raise or lower the signal
The source made the active and inactive calls. How the source made its calls: active means hit-call score of the fitted dose curve at least 0.9, where 1 is the maximum; inactive means score below 0.9.
Your response should consist of one outcome taken from 1 (yes) (active), 0 (no) (inactive)

Worked cases, answers included:
CCCCCOC(C)=O; 0 (no)
O=C1CN(N=Cc2ccc([N+](=O)[O-])o2)C(=O)N1; 0 (no)
CCCC(CCC)C(=O)O; 0 (no)
O=C(O)c1cccc(C(=O)O)c1; 0 (no)

Problem: For CCCCCCOC(=O)CC(CC(=O)OCCCCCC)(OC(=O)CCC)C(=O)OCCCCCC , which call appears in the assay record?
Result: 0 (no)

Problem: For c1ccc2c(c1)-c1cccc3c1c-2cc1ccccc13 , which call appears in the assay record?
Result: 0 (no)

Problem: For CNC(C)=O , which call appears in the assay record?
Result: 0 (no)

Problem: For OCCC(F)(F)C(F)(F)C(F)(F)C(F)(F)F , which call appears in the assay record?
Result: 0 (no)

Problem: For CC(=O)c1ccccc1 , which call appears in the assay record?
Result: 0 (no)

Problem: For CCOc1ccc2[nH]cc(C(=O)NCc3ccccc3)c(=O)c2n1 , which call appears in the assay record?
Result: 0 (no)

Problem: For NC(=O)NN=Cc1ccc([N+](=O)[O-])o1 , which call appears in the assay record?
Result: 0 (no)

Problem: For COCc1nnc(-c2ccc[n+]([O-])c2)n1-c1c(Cl)c(Cl)cc2[nH]c(=O)c(=O)[nH]c12 , which call appears in the assay record?
Result: 0 (no)

Problem: For FC(F)(F)COC(OCC(F)(F)F)OCC(F)(F)F , which call appears in the assay record?
Result: 0 (no)

Problem: For c1ccc2ncccc2c1 , which call appears in the assay record?
Result: 0 (no)

Problem: For CC[C@H](C)C(=O)O[C@H]1C[C@H](O)C=C2C=C[C@H](C)[C@H](CC[C@@H](O)C[C@@H](O)CC(=O)O)[C@H]21 , which call appears in the assay record?
Result: 0 (no)

Problem: For CCCc1ccccc1 , which call appears in the assay record?
Result: 0 (no)

Problem: For C=CCc1cc(S(=O)(=O)c2ccc(O)c(CC=C)c2)ccc1O , which call appears in the assay record?
Result: 1 (yes)

Problem: For O=S1(=O)CCCO1 , which call appears in the assay record?
Result: 0 (no)

Problem: For C[C@]12C=CC(=O)C=C1CC[C@H]1[C@@H]3C[C@@H](O)[C@](O)(C(=O)CO)[C@@]3(C)C[C@H](O)[C@@]12F , which call appears in the assay record?
Result: 0 (no)

Problem: For OC(O)(C(F)C(O)(O)C(F)(F)F)C(F)(F)F , which call appears in the assay record?
Result: 0 (no)

Problem: For Cc1ncc([C@@H](CCCCCCc2ccc3c(n2)NCCC3)CC(=O)O)cn1 , which call appears in the assay record?
Result: 0 (no)

Problem: For CCCCOC(=O)c1ccccc1 , which call appears in the assay record?
Result: 0 (no)

Problem: For O=C(Cl)C(F)(F)C(F)(F)C(F)(F)C(=O)Cl , which call appears in the assay record?
Result: 0 (no)

Problem: For CC(C)C(=O)Nc1ccc([N+](=O)[O-])c(C(F)(F)F)c1 , which call appears in the assay record?
Result: 0 (no)

Problem: For OCCNCCO , which call appears in the assay record?
Result: 0 (no)

Problem: For O=S(=O)(O)c1ccc(N=Nc2c(O)ccc3cc(S(=O)(=O)O)ccc23)cc1 , which call appears in the assay record?
Result: 0 (no)

Problem: For CCc1ccc(O)c(C(C)(C)C)c1 , which call appears in the assay record?
Result: 0 (no)

Problem: For OC(Cn1cncn1)(Cn1cncn1)c1ccc(F)cc1F , which call appears in the assay record?
Result: 0 (no)

Problem: For Cc1nccn1-c1ccc(Sc2cccc(C3(C(N)=O)CCOCC3)c2)cc1 , which call appears in the assay record?
Result: 1 (yes)

Problem: For O=S(=O)(O)CCC(F)(F)C(F)(F)C(F)(F)C(F)(F)C(F)(F)C(F)(F)F , which call appears in the assay record?
Result: 0 (no)
